Some compounds, each annotated with its measured MIC, C. parapsilosis CCM 8260.
Test system: C. parapsilosis CCM 8260
Format: cell-based, Candida parapsilosis
Details: CCM 8260, 24 h
Residues, ends and D or L forms follow the SMILES beside them. *: point of attachment. Palmitoyl = CCCCCCCCCCCCCCCC(=O)*; Myristoyl = CCCCCCCCCCCCCC(=O)*; Lauroyl = CCCCCCCCCCCC(=O)*; Decanoyl = CCCCCCCCCC(=O)*; Octanoyl = CCCCCCCC(=O)*

[
  {
    "compound": "CC[C@H](C)[C@H](N)C(=O)N[C@@H](CCCCN)C(=O)N[C@@H](CCCCN)C(=O)N[C@H](C(=O)N[C@@H](CC(C)C)C(=O)N[C@@H](CO)C(=O)N[C@@H](CCCCN)C(=O)N[C@H](C(=O)N[C@@H](CCCCN)C(=O)N[C@@H](CCCCN)C(=O)N[C@@H](CC(C)C)C(=O)N[C@@H](CC(C)C)C(=O)N[C@@H](CCCCN)C(N)=O)[C@@H](C)CC)[C@@H](C)CC [LK6, reference compound] (H-IKKILSKIKKLLK-NH2)",
    "units-of-measure": "µg/mL",
    "MIC, C. parapsilosis CCM 8260": 12.5
  },
  {
    "compound": "CCCCCCCCCC(=O)N[C@H](C(=O)N[C@@H](CCCCN)C(=O)N[C@@H](CCCCN)C(=O)N[C@H](C(=O)N[C@@H](CC(C)C)C(=O)N[C@@H](CO)C(=O)N[C@@H](CCCCN)C(=O)N[C@H](C(=O)N[C@@H](CCCCN)C(=O)N[C@@H](CCCCN)C(=O)N[C@@H](CC(C)C)C(=O)N[C@@H](CC(C)C)C(=O)N[C@@H](CCCCN)C(N)=O)[C@@H](C)CC)[C@@H](C)CC)[C@@H](C)CC [C10-LK6] (Decanoyl-IKKILSKIKKLLK-NH2)",
    "units-of-measure": "µg/mL",
    "MIC, C. parapsilosis CCM 8260": 6.25
  },
  {
    "compound": "CCCCCCCCCCCC(=O)N[C@H](C(=O)N[C@@H](CCCCN)C(=O)N[C@@H](CCCCN)C(=O)N[C@H](C(=O)N[C@@H](CC(C)C)C(=O)N[C@@H](CO)C(=O)N[C@@H](CCCCN)C(=O)N[C@H](C(=O)N[C@@H](CCCCN)C(=O)N[C@@H](CCCCN)C(=O)N[C@@H](CC(C)C)C(=O)N[C@@H](CC(C)C)C(=O)N[C@@H](CCCCN)C(N)=O)[C@@H](C)CC)[C@@H](C)CC)[C@@H](C)CC [C12-LK6] (Lauroyl-IKKILSKIKKLLK-NH2)",
    "units-of-measure": "µg/mL",
    "MIC, C. parapsilosis CCM 8260": 6.25
  },
  {
    "compound": "CCCCCCCC(=O)N[C@H](C(=O)N[C@@H](CCCCN)C(=O)N[C@@H](CCCCN)C(=O)N[C@H](C(=O)N[C@@H](CC(C)C)C(=O)N[C@@H](CO)C(=O)N[C@@H](CCCCN)C(=O)N[C@H](C(=O)N[C@@H](CCCCN)C(=O)N[C@@H](CCCCN)C(=O)N[C@@H](CC(C)C)C(=O)N[C@@H](CC(C)C)C(=O)N[C@@H](CCCCN)C(N)=O)[C@@H](C)CC)[C@@H](C)CC)[C@@H](C)CC [C8-LK6] (Octanoyl-IKKILSKIKKLLK-NH2)",
    "units-of-measure": "µg/mL",
    "MIC, C. parapsilosis CCM 8260": 6.25
  },
  {
    "compound": "CCCCCCCCCCCCCCCC(=O)N[C@H](C(=O)N[C@@H](CCCCN)C(=O)N[C@@H](CCCCN)C(=O)N[C@H](C(=O)N[C@@H](CC(C)C)C(=O)N[C@@H](CO)C(=O)N[C@@H](CCCCN)C(=O)N[C@H](C(=O)N[C@@H](CCCCN)C(=O)N[C@@H](CCCCN)C(=O)N[C@@H](CC(C)C)C(=O)N[C@@H](CC(C)C)C(=O)N[C@@H](CCCCN)C(N)=O)[C@@H](C)CC)[C@@H](C)CC)[C@@H](C)CC [C16-LK6] (Palmitoyl-IKKILSKIKKLLK-NH2)",
    "units-of-measure": "µg/mL",
    "MIC, C. parapsilosis CCM 8260": 50
  },
  {
    "compound": "CCCCCCCCCCCCCC(=O)N[C@H](C(=O)N[C@@H](CCCCN)C(=O)N[C@@H](CCCCN)C(=O)N[C@H](C(=O)N[C@@H](CC(C)C)C(=O)N[C@@H](CO)C(=O)N[C@@H](CCCCN)C(=O)N[C@H](C(=O)N[C@@H](CCCCN)C(=O)N[C@@H](CCCCN)C(=O)N[C@@H](CC(C)C)C(=O)N[C@@H](CC(C)C)C(=O)N[C@@H](CCCCN)C(N)=O)[C@@H](C)CC)[C@@H](C)CC)[C@@H](C)CC [C14-LK6] (Myristoyl-IKKILSKIKKLLK-NH2)",
    "units-of-measure": "µg/mL",
    "MIC, C. parapsilosis CCM 8260": 6.25
  }
]

---

Reported α-Helix percentage, POPC values follow for various molecules
Test system: POPC liposomes
Assay: CD, α-helix content in POPC liposomes
Format: physicochemical
Conditions: 25 °C, peptide 0.15 mg/mL, 1.3 mM POPC, from ellipticity at 222 nm
Residues, ends and D or L forms follow the SMILES beside them. *: point of attachment. Decanoyl = CCCCCCCCCC(=O)*; Octanoyl = CCCCCCCC(=O)*
readout-kind: α-Helix percentage, POPC (%)

[
  {
    "molecule": "CCCCCCCC(=O)N[C@H](C(=O)N[C@@H](CCCCN)C(=O)N[C@@H](CCCCN)C(=O)N[C@H](C(=O)N[C@@H](CC(C)C)C(=O)N[C@@H](CO)C(=O)N[C@@H](CCCCN)C(=O)N[C@H](C(=O)N[C@@H](CCCCN)C(=O)N[C@@H](CCCCN)C(=O)N[C@@H](CC(C)C)C(=O)N[C@@H](CC(C)C)C(=O)N[C@@H](CCCCN)C(N)=O)[C@@H](C)CC)[C@@H](C)CC)[C@@H](C)CC [C8-LK6] (Octanoyl-IKKILSKIKKLLK-NH2)",
    "value": 46
  },
  {
    "molecule": "CCCCCCCCCC(=O)N[C@@H](CCCCN)C(=O)N[C@@H](CCCNC(=N)N)C(=O)N[C@@H](Cc1ccccc1)C(=O)N[C@@H](CCCCN)C(=O)N[C@@H](CCCCN)C(=O)N[C@@H](Cc1ccccc1)C(=O)N[C@@H](Cc1ccccc1)C(=O)N[C@@H](CCCCN)C(=O)N[C@@H](CCCCN)C(=O)N[C@@H](CC(C)C)C(=O)N[C@@H](CCCCN)C(N)=O [C10-ATRA-1] (Decanoyl-KRFKKFFKKLK-NH2)",
    "value": 14
  },
  {
    "molecule": "CCCCCCCC(=O)N[C@@H](CCCCN)C(=O)N[C@@H](CCCNC(=N)N)C(=O)N[C@@H](Cc1ccccc1)C(=O)N[C@@H](CCCCN)C(=O)N[C@@H](CCCCN)C(=O)N[C@@H](Cc1ccccc1)C(=O)N[C@@H](Cc1ccccc1)C(=O)N[C@@H](CCCCN)C(=O)N[C@@H](CCCCN)C(=O)N[C@@H](CC(C)C)C(=O)N[C@@H](CCCCN)C(N)=O [C8-ATRA-1] (Octanoyl-KRFKKFFKKLK-NH2)",
    "value": 11
  },
  {
    "molecule": "CCCCCCCC(=O)N[C@H](C(=O)N[C@@H](CC(N)=O)C(=O)N[C@@H](Cc1c[nH]c2ccccc12)C(=O)N[C@@H](CCCCN)C(=O)N[C@@H](CCCCN)C(=O)N[C@H](C(=O)N[C@@H](CC(C)C)C(=O)NCC(=O)N[C@@H](CCCCN)C(=O)N[C@H](C(=O)N[C@H](C(=O)N[C@@H](CCCCN)C(=O)N[C@H](C(=O)N[C@@H](C)C(=O)N[C@@H](CCCCN)C(N)=O)C(C)C)[C@@H](C)CC)[C@@H](C)CC)C(C)C)C(C)C [C8-LL-I] (Octanoyl-VNWKKVLGKIIKVAK-NH2)",
    "value": 48
  },
  {
    "molecule": "CCCCCCCCCC(=O)N[C@H](C(=O)N[C@@H](CC(N)=O)C(=O)N[C@@H](Cc1c[nH]c2ccccc12)C(=O)N[C@@H](CCCCN)C(=O)N[C@@H](CCCCN)C(=O)N[C@H](C(=O)N[C@@H](CC(C)C)C(=O)NCC(=O)N[C@@H](CCCCN)C(=O)N[C@H](C(=O)N[C@H](C(=O)N[C@@H](CCCCN)C(=O)N[C@H](C(=O)N[C@@H](C)C(=O)N[C@@H](CCCCN)C(N)=O)C(C)C)[C@@H](C)CC)[C@@H](C)CC)C(C)C)C(C)C [C10-LL-I] (Decanoyl-VNWKKVLGKIIKVAK-NH2)",
    "value": 40
  }
]

Source: paper PMC9959048
